# Tested on: HT29 cell line
# assay overview: HT29 cell assay (analogous MTT procedure)
# Format: cell-based
# assay context: Homo sapiens, HT-29; procedure analogous to P388
quantity name: IC50 (µg/mL)

{"smiles text": "Cn1cc2c3c1C(=O)C(N)=C(Cl)C3=NCC2", "target": "HT29 cell line", "IC50 [µg/mL]": 10}

(a) CSc1c2c3c(n1C)C(=O)C(N)=C(Cl)C3=NCC2
(b) CSc1c2c3c(n1C)C(=O)C(N)=CC3=NCC2
Hi there! Just curious which has the higher IC50 between a and b . Write the label of whichever entry you select.
b
(b: 2.5 µg/mL, a: 0.44 µg/mL)
